Source: ChEMBL document CHEMBL1201862

Measured AC50, listed per entry.
molecular target: Paired box protein Pax-8 (Homo sapiens); assay: inhibitors of PAX8-driven TPO luciferase reporter, dose response, RMG-I cells, cherry-pick (AID 687027); format: functional, cell-based;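 further: luciferase reporter driven by Pax8 target thyroperoxidase promoter measured by SteadyGlo luminescence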
Sequence (Q06710 whole entry): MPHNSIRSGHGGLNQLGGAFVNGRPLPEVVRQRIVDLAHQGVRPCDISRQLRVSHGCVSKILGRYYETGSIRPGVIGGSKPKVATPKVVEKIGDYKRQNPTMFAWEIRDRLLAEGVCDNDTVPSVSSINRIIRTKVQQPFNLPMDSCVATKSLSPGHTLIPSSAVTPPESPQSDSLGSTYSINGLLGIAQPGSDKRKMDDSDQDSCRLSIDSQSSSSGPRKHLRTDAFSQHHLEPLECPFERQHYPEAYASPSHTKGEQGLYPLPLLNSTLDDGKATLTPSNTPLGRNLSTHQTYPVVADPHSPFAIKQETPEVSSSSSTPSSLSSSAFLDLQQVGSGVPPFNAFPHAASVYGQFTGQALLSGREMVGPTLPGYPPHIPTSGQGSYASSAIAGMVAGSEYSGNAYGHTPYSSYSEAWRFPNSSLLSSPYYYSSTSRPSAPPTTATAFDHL
Calls of active or inactive are those of the source. How the calls were made is not given here.

Use the examples below as a reference point.
compound: C=C1C(=O)C2=CC1CCC(=O)C1(C)CCC(OC(C)=O)C(C)(C)C1CC2O (stereo not given)
AC50: 1.43 µM (active)
--
compound: COc1ccc(S(=O)(=O)/N=C2\C=C(Nc3ccc(O)cc3)C(=O)c3ccccc32)cc1
AC50: 1.86 µM (active)

Query string: Field request: AC50 | item: `COc1ccccc1S(=O)(=O)N(C)C[C@H]1Oc2cc(C#CCC3CCCC3)ccc2S(=O)(=O)N([C@H](C)CO)C[C@H]1C`
Result string: 4.83 µM (active)

Query string: Field request: AC50 | item: `Cc1ccc(C(=O)c2cc([N+](=O)[O-])ccc2N2CCCCC2)c(C)c1`
Result string: 0.929 µM (active)

Query string: Field request: AC50 | item: Oc1c(I)cc(I)c2cccnc12 [IODOQUINOL]
Result string: 4.87 µM (active)
